subject_of_test: SARS-CoV-2-RBD tagged with a C-terminal Fc tag (ACRO Biosystems) (SARS-CoV-2), P0DTC2
measure: koff (s⁻¹)
Give your result in s⁻¹ as a bare value.

### Prompt Give koff for (Nb113)2, homodimer of Nb1 (VHH72) with Tet3.0 at framework position Gln13, joined by the 2-headed sTCO (PEG)12 linker (VHH, modifications not checked) VHH: QVQLQESGGGLVQAGGSLRLSCAASGRTFSEYAMGWFRQAPGKEREFVATISWSGGSTYYTDSVKGRFTISRDNAKNTVYLQMNSLKPDDTAVYYCAAAGLGTVVSEWDYDYYLDYWGQGTQVTVSS
### Response 0.00156

### Prompt Give koff for (Nb1N)2, homodimer of Nb1 (VHH72) with Tet3.0 at the N-terminal position, joined by the 2-headed sTCO (PEG)12 linker (VHH, modifications not checked) VHH: SGTGSQVQLQESGGGLVQAGGSLRLSCAASGRTFSEYAMGWFRQAPGKEREFVATISWSGGSTYYTDSVKGRFTISRDNAKNTVYLQMNSLKPDDTAVYYCAAAGLGTVVSEWDYDYYLDYWGQGTQVTVSS
### Response 0.00119

### Prompt Give koff for (Nb1C)2, homodimer of Nb1 (VHH72) with Tet3.0 at the C-terminus, joined by the 2-headed sTCO (PEG)12 linker (VHH, modifications not checked) VHH: QVQLQESGGGLVQAGGSLRLSCAASGRTFSEYAMGWFRQAPGKEREFVATISWSGGSTYYTDSVKGRFTISRDNAKNTVYLQMNSLKPDDTAVYYCAAAGLGTVVSEWDYDYYLDYWGQGTQVTVSS
### Response 0.0064

### Prompt Give koff for (Nb142)2, homodimer of Nb1 (VHH72) with Tet3.0 at framework position Gly42, joined by the 2-headed sTCO (PEG)12 linker (VHH, modifications not checked) VHH: QVQLQESGGGLVQAGGSLRLSCAASGRTFSEYAMGWFRQAPGKEREFVATISWSGGSTYYTDSVKGRFTISRDNAKNTVYLQMNSLKPDDTAVYYCAAAGLGTVVSEWDYDYYLDYWGQGTQVTVSS
### Response 0.00201
